- Tested on: IMR-32
- assayName: Antiproliferative activity against human IMR32 cells after 72 hrs by MTT assay
- Type: functional, cell-based
- particulars: IMR-32, 72 h
valueKind: IC50 (µM)
Numeric only. Scale: µM

O=[N+]([O-])c1ccc(C2OC2c2cnc3ccccc3n2)o1 (configuration not stated); 5

Now look at this one.
Recorded result, `c1ccc2nccnc2c1` , IC50: 13

====

- assayName: Selectivity index, ratio of IC50 for human KB cells to IC50 for Plasmodium falciparum K1 infected in human erythrocytes
- Assay type: toxicity, cell-based
- particulars: read-out: Ratio IC50
valueKind: selectivity ratio
Respond numerically, and do not add a unit to the figure.

Recorded result, `N#Cc1c(-c2ccco2)[n+]([O-])c2ccccc2[n+]1[O-]` , selectivity ratio: 10.3

====

- Tested on: Plasmodium falciparum
- assayName: Antiplasmodial activity against Plasmodium falciparum K1 infected in human erythrocytes preincubated for 24 hrs followed by [3H]hypoxanthine addition measured after 24 hrs by scintillation counting
- Format: functional, organism-based
valueKind: pIC50
The scale used: pIC50 is minus the common logarithm of the concentration in molar units.

Recorded result, `COc1ccc2c(c1)[n+]([O-])c(C#N)c(-c1ccco1)[n+]2[O-]` , pIC50: 6.55

Recorded result, `N#Cc1c(-c2ccco2)[n+]([O-])c2ccccc2[n+]1[O-]` , pIC50: 6.20
